Molecular target: T1, IL-7 receptor (IL-7Rα/γc heterodimer) on primary human T cells (human, UniProt P16871 21-459; P31785 23-369)
T1 sequence (looked up) 1: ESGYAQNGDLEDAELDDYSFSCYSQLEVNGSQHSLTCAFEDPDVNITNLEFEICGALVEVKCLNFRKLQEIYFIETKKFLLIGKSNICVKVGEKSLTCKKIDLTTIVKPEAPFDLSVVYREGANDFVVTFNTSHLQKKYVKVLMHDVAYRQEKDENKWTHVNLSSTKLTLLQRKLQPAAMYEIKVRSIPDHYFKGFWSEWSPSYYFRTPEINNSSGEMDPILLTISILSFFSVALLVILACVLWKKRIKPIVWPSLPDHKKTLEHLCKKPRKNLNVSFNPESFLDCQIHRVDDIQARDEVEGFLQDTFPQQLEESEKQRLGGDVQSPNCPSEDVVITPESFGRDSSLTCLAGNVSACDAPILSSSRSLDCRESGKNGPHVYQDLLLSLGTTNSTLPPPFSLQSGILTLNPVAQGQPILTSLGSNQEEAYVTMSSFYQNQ
T1 sequence (looked up) 2: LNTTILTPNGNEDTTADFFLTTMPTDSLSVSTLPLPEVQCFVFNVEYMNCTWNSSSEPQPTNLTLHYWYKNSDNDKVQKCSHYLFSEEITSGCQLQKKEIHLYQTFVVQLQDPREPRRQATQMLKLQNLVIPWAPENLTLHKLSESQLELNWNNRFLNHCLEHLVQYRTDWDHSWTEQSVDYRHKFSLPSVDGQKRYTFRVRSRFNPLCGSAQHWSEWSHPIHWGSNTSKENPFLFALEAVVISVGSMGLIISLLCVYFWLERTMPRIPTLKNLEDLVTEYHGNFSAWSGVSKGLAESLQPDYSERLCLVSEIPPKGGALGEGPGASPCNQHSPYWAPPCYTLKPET
Experiment: cell-based or functional assay
Bridges are numbered along the chain shown (N, C = ends). [ ]: non-standard residue; d: D form. glutaryl‑PEG9‑azide = glutaryl-PEG9-azide group on the N-terminal amine; hSer = N[C@@H](CCO)C(=O)O; Nle = CCCC[C@H](N)C(=O)O
// reported EC50 pSTAT5, CD4 Memory per item

- binder: "CMP-108, synthetic IL-7 of SEQ ID NO: 3 with glutaryl-PEG9-azide at the N-terminus (ligand, disulfide 34-129, 47-141, 2-92, The suffix is not explained; also called synthetic IL-7, WT with an N-terminal conjugation handle) {glutaryl‑PEG9‑azide}-DCDIEGKDGKQYESVL[Nle]VSIDQLLDS[Nle]KEIGSNCL[hSer]NEFNFFKRHICDANKEG[Nle]FLFRAARKLRQFLK[Nle]NSTGDF[hSer]LHLLKVSEGTTILLNCTGQVKGRKPAALGEAQPTKSL[hSer]ENKSLKEQKKLNDLCFLKRLLQEIKTCWNKIL[Nle]GTKEH-NH2"
  EC50 pSTAT5, CD4 Memory (pM): 6
- binder: "CMP-110, synthetic IL-7 G85N of SEQ ID NO: 7 with glutaryl-PEG9-azide at the N-terminus (ligand, disulfide 34-129, 47-141, 2-92, The suffix is not explained; also called CMP-110-001) {glutaryl‑PEG9‑azide}-DCDIEGKDGKQYESVL[Nle]VSIDQLLDS[Nle]KEIGSNCL[hSer]NEFNFFKRHICDANKEG[Nle]FLFRAARKLRQFLK[Nle]NSTGDF[hSer]LHLLKVSENTTILLNCTGQVKGRKPAALGEAQPTKSL[hSer]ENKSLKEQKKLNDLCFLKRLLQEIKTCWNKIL[Nle]GTKEH-NH2"
  EC50 pSTAT5, CD4 Memory (pM): 30
- binder: "CMP-107, synthetic IL-7 V15W of SEQ ID NO: 5 with glutaryl-PEG9-azide at the N-terminus (ligand, disulfide 34-129, 47-141, 2-92, also called synthetic IL-7 with V15W) {glutaryl‑PEG9‑azide}-DCDIEGKDGKQYESWL[Nle]VSIDQLLDS[Nle]KEIGSNCL[hSer]NEFNFFKRHICDANKEG[Nle]FLFRAARKLRQFLK[Nle]NSTGDF[hSer]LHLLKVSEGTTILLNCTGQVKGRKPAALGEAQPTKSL[hSer]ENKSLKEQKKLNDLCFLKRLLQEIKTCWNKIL[Nle]GTKEH-NH2"
  EC50 pSTAT5, CD4 Memory (pM): 0.4
